measured.on: CDK2/Cyclin A (Homo sapiens)
procedure.text: Inhibition of CDK2/Cyclin A Retinoblastoma Kinase Activity
Format: biochemical
study.conditions: at 0.03 μM
measured.parameter: CDK2 % Inhibition at 0.03 μM (%)
Give bare numbers, in %.

CC(=O)Nc1ccccc1C(=O)N1CCC(Nc2nc(N)c(C(=O)c3c(F)cccc3F)s2)CC1 [Example R111]; 11

Provide each entry's CDK2 % Inhibition at 0.03 μM from the list below.
1. CC(Oc1ccccc1)C(=O)N1CCC(Nc2nc(N)c(C(=O)c3c(F)cccc3F)s2)CC1 (stereo not drawn) [Example R9]
2. Nc1nc(NC2CCN(C(=O)c3ccc(C(F)(F)F)cc3F)CC2)sc1C(=O)c1c(F)cccc1F [Example R35]
3. CCCCC(C)C(=O)N1CCC(Nc2nc(N)c(C(=O)c3c(F)cccc3F)s2)CC1 (stereo not drawn) [Example R167]
4. CC1CC1C(=O)N1CCC(Nc2nc(N)c(C(=O)c3c(F)cccc3F)s2)CC1 (stereo not drawn) [Example R93]
5. CCc1ccc(C(=O)N2CCC(Nc3nc(N)c(C(=O)c4c(F)cccc4F)s3)CC2)cc1 [Example R157]
6. CCCC(C)C(=O)N1CCC(Nc2nc(N)c(C(=O)c3c(F)cccc3F)s2)CC1 (stereo not drawn) [Example R165]
7. Nc1nc(NC2CCN(C(=O)c3ccc(Cl)cc3)CC2)sc1C(=O)c1c(F)cccc1F [Example R144]
8. N#Cc1cccc(C(=O)N2CCC(Nc3nc(N)c(C(=O)c4c(F)cccc4F)s3)CC2)c1 [Example R129]

*A*
−15
19
−2
−10
22
3
20
41

----------
Tested on: HCT-116 cell line
procedure.text: Inhibition of cell growth, tetrazolium salt (MTT) assay
Type: cell-based
study.conditions: 0.1 μM compound; HCT-116; Table 3
Exercise: for every item that follows, state its recorded HCT-116 % Inhibition at 0.1 μM.
Answers are plain numbers, in %.

Nc1nc(NC2CCN(S(=O)(=O)c3ccc(F)cc3)CC2)sc1C(=O)c1c(F)cccc1F; 19

Lab note: each compound below needs its HCT-116 % Inhibition at 0.1 μM filled in.
1. Cn1nc(-c2ccc(S(=O)(=O)N3CCC(Nc4nc(N)c(C(=O)c5c(F)cccc5F)s4)CC3)s2)cc1C(F)(F)F
2. Nc1nc(NC2CCN(S(=O)(=O)c3cccc([N+](=O)[O-])c3)CC2)sc1C(=O)c1c(F)cccc1F

*A*
[0, 19]

----------
measured.on: CDK2/Cyclin A (Homo sapiens, UniProt P24941)
procedure.text: Inhibition of CDK2/Cyclin A Retinoblastoma Kinase Activity
Type: biochemical
study.conditions: read-out: % inhibition of CDK2 (@ 0.05 μM), compound at 0.05 μM
Procedure: Cyclin-dependent kinase activity was measured by quantifying the enzyme-catalyzed, time-dependent incorporation of radioactive phosphate from [^32P]ATP or [^33P]ATP into a protein substrate. […] The phosphorylated substrate was then captured on a nitrocellulose or phosphocellulose membrane using a 96-well filtration manifold, and unincorporated radioactivity was removed by repeated washing with 0.85% phosphoric acid. Radioactivity was quantified by exposing the dried membranes to a phosphorimager. […]
For each entry below, report its inhibition at 0.05 µM value.
Answers are plain numbers, in %.

Nc1nc(NC2CCN(S(=O)(=O)CCCN3CCCC(F)(F)C3)CC2)sc1C(=O)c1c(F)cccc1F [Example V167]; 83

Hi there! I need inhibition at 0.05 µM for each item below, if you can.
1. C=CCNCCCS(=O)(=O)N1CCC(Nc2nc(N)c(C(=O)c3c(F)cccc3F)s2)CC1 [Example V103]
2. CC(C)OCCNCCCS(=O)(=O)N1CCC(Nc2nc(N)c(C(=O)c3c(F)cccc3F)s2)CC1 [Example V131]
3. Cc1ccc(CNCCCS(=O)(=O)N2CCC(Nc3nc(N)c(C(=O)c4c(F)cccc4F)s3)CC2)cc1 [Example V80]
4. CC(C)[C@H](CO)NCCCS(=O)(=O)N1CCC(Nc2nc(N)c(C(=O)c3c(F)cccc3F)s2)CC1 [Example V70]

*A*
1. 84
2. 82
3. 91
4. 89

Dear reader, for each entry below, please note its inhibition at 0.05 µM.
1. CC1=NNC(=O)C1CNCCCS(=O)(=O)N1CCC(Nc2nc(N)c(C(=O)c3c(F)cccc3F)s2)CC1 (stereo not drawn) [Example V172]
2. CCC(COC)NCCCS(=O)(=O)N1CCC(Nc2nc(N)c(C(=O)c3c(F)cccc3F)s2)CC1 (stereo not drawn) [Example V97]
3. C=CCN(C)CCCS(=O)(=O)N1CCC(Nc2nc(N)c(C(=O)c3c(F)cccc3F)s2)CC1 [Example V135]
4. Nc1nc(NC2CCN(S(=O)(=O)CCCNC3CCCCCC3)CC2)sc1C(=O)c1c(F)cccc1F [Example V159]

*A*
1: 81; 2: 81; 3: 78; 4: 88

Required: inhibition at 0.05 µM, one value per compound below.
1. CCCCNCCCS(=O)(=O)N1CCC(Nc2nc(N)c(C(=O)c3c(F)cccc3F)s2)CC1 [Example V85]
2. Nc1nc(NC2CCN(S(=O)(=O)CCCNCc3ccncc3)CC2)sc1C(=O)c1c(F)cccc1F [Example V23]
3. CN1CCCN(CCCS(=O)(=O)N2CCC(Nc3nc(N)c(C(=O)c4c(F)cccc4F)s3)CC2)CC1 [Example V30]

*A*
1: 82; 2: 87; 3: 78

----------
Tested on: HCT-116 cell line
procedure.text: Inhibition of cell growth, tetrazolium salt (MTT) assay
Assay type: cell-based
study.conditions: 0.1 μM compound; HCT-116; Table 3
Hi there, I'd appreciate the recorded HCT-116 % Inhibition at 0.1 μM for every entry that follows.
Give bare numbers, in %.

Examples with their reported HCT-116 % Inhibition at 0.1 μM follow.
Nc1nc(NC2CCN(S(=O)(=O)CCc3cccc4ccccc34)CC2)sc1C(=O)c1c(F)cccc1F; 23
CCCCS(=O)(=O)N1CCC(Nc2nc(N)c(C(=O)c3c(F)cccc3F)s2)CC1; 4
CC(C)c1cc(C(C)C)c(S(=O)(=O)N2CCC(Nc3nc(N)c(C(=O)c4c(F)cccc4F)s3)CC2)c(C(C)C)c1; 13
CN(C)S(=O)(=O)N1CCC(Nc2nc(N)c(C(=O)c3c(F)cccc3F)s2)CC1; 25
Nc1nc(NC2CCN(S(=O)(=O)c3c(Cl)nc4sccn34)CC2)sc1C(=O)c1c(F)cccc1F; 10
CCCCOc1ccc(S(=O)(=O)N2CCC(Nc3nc(N)c(C(=O)c4c(F)cccc4F)s3)CC2)cc1; 10

Take each entry in turn and give its HCT-116 % Inhibition at 0.1 μM.
1. Nc1nc(NC2CCN(S(=O)(=O)c3cccc4nsnc34)CC2)sc1C(=O)c1c(F)cccc1F
2. Nc1nc(NC2CCN(S(=O)(=O)c3ccc(-c4ccon4)s3)CC2)sc1C(=O)c1c(F)cccc1F
3. N#Cc1ccc(S(=O)(=O)N2CCC(Nc3nc(N)c(C(=O)c4c(F)cccc4F)s3)CC2)cc1
4. CSc1nccc(-c2ccc(S(=O)(=O)N3CCC(Nc4nc(N)c(C(=O)c5c(F)cccc5F)s4)CC3)s2)n1

*A*
22
13
0
13

----------
Test system: HCT-116 cell line
procedure.text: Inhibition of cell growth, tetrazolium salt (MTT) assay
Assay type: cell-based
study.conditions: 0.25 μM compound; HCT-116; Table 2
measured.parameter: HCT-116 % Inhibition at 0.25 μM (%)
Answers are plain numbers, in %.

Reference set, count: 4
Cc1ccc(NC(=O)N2CCC(Nc3nc(N)c(C(=O)c4c(F)cccc4F)s3)CC2)c(C)c1; 26
Nc1nc(NC2CCN(C(=O)Nc3cccnc3)CC2)sc1C(=O)c1c(F)cccc1F; 47
Nc1nc(NC2CCN(C(=O)Nc3ccc(Br)cc3)CC2)sc1C(=O)c1c(F)cccc1F; 20
Cc1ccc(NC(=O)N2CCC(Nc3nc(N)c(C(=O)c4c(F)cccc4F)s3)CC2)cc1; 6

Hi! Can you tell me HCT-116 % Inhibition at 0.25 μM for each of these molecules?
1. Nc1nc(NC2CCN(C(=O)Nc3ccccc3Cl)CC2)sc1C(=O)c1c(F)cccc1F
2. Nc1nc(NC2CCN(C(=O)NCCCl)CC2)sc1C(=O)c1c(F)cccc1F

*A*
12
99

----------
measured.on: human CDK4 and genetically truncated (1-264) cyclin D3 (Homo sapiens)
Sequence (P11802 whole entry, the tested form may be a part): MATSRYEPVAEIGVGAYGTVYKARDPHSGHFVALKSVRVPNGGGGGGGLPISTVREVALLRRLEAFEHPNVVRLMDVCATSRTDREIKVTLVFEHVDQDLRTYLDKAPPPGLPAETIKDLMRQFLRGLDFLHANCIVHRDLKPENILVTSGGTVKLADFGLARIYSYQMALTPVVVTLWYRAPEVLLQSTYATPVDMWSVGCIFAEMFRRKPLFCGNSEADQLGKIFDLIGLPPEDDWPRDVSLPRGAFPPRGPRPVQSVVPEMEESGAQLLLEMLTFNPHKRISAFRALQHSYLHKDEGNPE
Sequence (P30281 1-264 partner): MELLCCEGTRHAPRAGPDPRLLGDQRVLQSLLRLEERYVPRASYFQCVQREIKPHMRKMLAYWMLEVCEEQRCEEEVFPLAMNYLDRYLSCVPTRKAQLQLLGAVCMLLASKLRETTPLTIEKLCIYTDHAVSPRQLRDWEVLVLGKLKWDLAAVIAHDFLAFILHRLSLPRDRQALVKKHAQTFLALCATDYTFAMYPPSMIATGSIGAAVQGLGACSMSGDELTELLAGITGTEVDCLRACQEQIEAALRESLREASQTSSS
procedure.text: Inhibition of CDK4/Cyclin D Retinoblastoma Kinase Activity
Assay type: biochemical
study.conditions: 0.03 μM compound; Table 2
measured.parameter: CDK4 % Inhibition at 0.03 μM (%)
One number for each entry, in %.

// solved cases for CDK4 % Inhibition at 0.03 μM follow
CC(C)(C)NC(=O)N1CCC(Nc2nc(N)c(C(=O)c3c(F)cccc3F)s2)CC1; 9
Cc1cc(C)c(NC(=O)N2CCC(Nc3nc(N)c(C(=O)c4c(F)cccc4F)s3)CC2)c(C)c1; 10
CN1C(=O)c2ccc(NC(=O)N3CCC(Nc4nc(N)c(C(=O)c5c(F)cccc5F)s4)CC3)cc2C1=O; 12

*Q* Entry `Nc1nc(NC2CCN(C(=O)Nc3ccc(Br)cc3)CC2)sc1C(=O)c1c(F)cccc1F` : reported CDK4 % Inhibition at 0.03 μM = ?
*A* 9

Each recorded value in this set is attributed to patent US20050101595A1.
